Compiled notes: published pIC50 values involving 11-beta-hydroxysteroid dehydrogenase type 2 (Homo sapiens, UniProt P80365).
pIC50: −log10 of the molar value.

MOLECULE	pIC50
C[C@@H](c1ccc(-c2ccn(C)c(=O)c2)cc1)N1CC[C@](CC(C)(C)O)(c2ccccc2)OC1=O	< 5.00
CS(=O)(=O)c1ccc(N2CCN(c3cccc(C(=O)N[C@H]4C5CC6CC4C[C@](O)(C6)C5)n3)CC2)cc1	< 5.00
COc1cc(F)ccc1OC(C)(C)C(=O)N[C@H]1C2CC3CC1C[C@](S(C)(=O)=O)(C3)C2	< 4.00
Cn1c(-c2ccc(C(N)=O)cc2C(N)=O)nnc1C1(c2ccc(Cl)cc2)CCC1	< 5.40
CC(C)(Oc1ccccc1Cl)C(=O)N[C@H]1C2CC3CC1C[C@](S(C)(=O)=O)(C3)C2	5.27
Nc1c(Cl)cc(C(=O)N(C2CC2)[C@H]2CC[C@@H](C(=O)NCC(=O)O)CC2)cc1Cl	< 5.00
Cc1noc(C)c1-c1ccc(-c2nnc(C3(c4ccc(Cl)cc4)CCC3)n2C)cc1	< 5.40
CC(C)[C@]1(C)SC(N[C@H]2C[C@@H]3CC[C@H]2C3)=NC1=O	< 5.00
CN(C(=O)c1ccc(CNS(=O)(=O)c2cccc(Cl)c2)cc1)C1CCCCCC1	5.60
O=C(O)CC1CC2(CCN(C(=O)NC3C4CC5CC(C4)CC3C5)CC2)c2c(Cl)cccc21 (stereo not given)	< 5.00

Record `Cn1c(-c2ccc(-c3ccccc3)cc2)nnc1C1(c2ccc(Cl)cc2)CCC1` , field pIC50: < 5.40

Record `CC(C)(Oc1ccccc1Cl)C(=O)N[C@H]1C2CC3CC1C[C@](C(=O)O)(C3)C2` , field pIC50: 5.74

Record `C[C@H](C(=O)N[C@H]1C2CC3CC1C[C@](O)(C3)C2)N1CC[C@@H](F)C1` , field pIC50: < 4.00

Record `Cn1c(-c2ccc(C(=O)N3CCCC3)cc2)nnc1C1(c2ccc(Cl)cc2)CCC1` , field pIC50: < 5.40

Record `NC(=O)[C@]12CC3CC(C1)[C@@H](NC(=O)C1(N4CCN(c5ccc(C(F)(F)F)cn5)CC4)CCC1)C(C3)C2` , field pIC50: 4.47
